- assayedTarget: TJP2_1, Q9UDY2
- Sequence (Q9UDY2 24-128): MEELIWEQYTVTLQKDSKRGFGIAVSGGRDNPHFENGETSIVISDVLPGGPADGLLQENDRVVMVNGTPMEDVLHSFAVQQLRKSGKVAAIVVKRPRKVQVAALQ
- assayMethodText: holdup assay
- Design: key: below the threshold = too weak to quantify, mostly under pKd 3.1 to 4
- particulars: plain residues with an end cap or a label only (N-terminal biotin on a linker: ado-ado)

- binder: "SVTSERETNI [SLC16A7, O60669]"
  pKd: "below the threshold"
- binder: "TRKRSGEAAV [PFKM, P08237]"
  pKd: "below the threshold"
- binder: "LESTTVGTSV [KARS1, Q15046]"
  pKd: "below the threshold"
- binder: "DPAESMESLV [PTPRG, P23470]"
  pKd: "below the threshold"
- binder: "RQKEVRESKC [SCN8A, Q9UQD0]"
  pKd: "below the threshold"
- binder: "AAVENKVTDL [PLXNB1, O43157]"
  pKd: "below the threshold"
- binder: "NTANRRTTPV [CACNG2, Q9Y698]"
  pKd: 3.9
- binder: "LKDDELKTKL [SLCO1A2, P46721]"
  pKd: "below the threshold"
- binder: "ARSAAASNYV [CLDN4, O14493]"
  pKd: 3.92
- binder: "ARGPPRESEV [FAM110D, Q8TAY7]"
  pKd: "below the threshold"
